system_tested: T1, human MSLN-R1-his protein (human, UniProt Q13421 296-390)
T1 construct: Self-made in HEK293E cells; also called human MSLN-R1 protein; hMSLN-R1-his; not shown: His tag
T1 chain: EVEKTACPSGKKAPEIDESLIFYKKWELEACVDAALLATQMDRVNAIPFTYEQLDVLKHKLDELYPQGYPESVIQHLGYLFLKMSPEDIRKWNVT
test_name: ELISA on coated antigen, antibody 10 nM
OD450 values, listed per item
measure_name: OD450 (OD450)

- binder: "S009-F3.80.22 (antibody, human IgG1, kappa, V domains shown, Human-murine chimeric antibody: murine VH/VL on human IgG1 heavy and kappa light constant regions) VH: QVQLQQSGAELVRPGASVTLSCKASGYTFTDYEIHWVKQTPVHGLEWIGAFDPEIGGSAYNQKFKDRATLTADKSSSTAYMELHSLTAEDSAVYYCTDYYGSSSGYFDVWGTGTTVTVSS VL: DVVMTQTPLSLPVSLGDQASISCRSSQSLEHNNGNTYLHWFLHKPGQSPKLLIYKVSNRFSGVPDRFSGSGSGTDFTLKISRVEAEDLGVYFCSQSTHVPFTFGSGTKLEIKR"
  measure_name: "OD450"
  value_reported: 0.06
- binder: "S009-F3.45.21 (antibody, human IgG1, kappa, V domains shown, Human-murine chimeric antibody: murine VH/VL on human IgG1 heavy and kappa light constant regions) VH: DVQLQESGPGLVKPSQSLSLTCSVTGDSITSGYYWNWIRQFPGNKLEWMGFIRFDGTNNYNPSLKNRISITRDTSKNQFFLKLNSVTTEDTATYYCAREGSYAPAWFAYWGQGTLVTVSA VL: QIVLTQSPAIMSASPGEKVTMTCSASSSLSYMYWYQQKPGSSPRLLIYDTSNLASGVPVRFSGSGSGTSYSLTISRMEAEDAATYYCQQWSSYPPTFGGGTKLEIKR"
  measure_name: "OD450"
  value_reported: 0.11
- binder: "S009-F3.16.1 (antibody, human IgG1, kappa, V domains shown, Human-murine chimeric antibody: murine VH/VL on human IgG1 heavy and kappa light constant regions) VH: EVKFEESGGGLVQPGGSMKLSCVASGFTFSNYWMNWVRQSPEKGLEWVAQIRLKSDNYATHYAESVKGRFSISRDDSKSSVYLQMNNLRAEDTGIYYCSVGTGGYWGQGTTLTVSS VL: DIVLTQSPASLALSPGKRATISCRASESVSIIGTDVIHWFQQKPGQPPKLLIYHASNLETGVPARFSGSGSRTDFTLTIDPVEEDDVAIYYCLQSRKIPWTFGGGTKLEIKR"
  measure_name: "OD450"
  value_reported: 0.08
